Value kind: melting point

Please review the following examples before continuing.
[
  {
    "Compound": "Cc1ccccc1-c1nc2c3ccccc3ccn2c1N",
    "melting point": "151 to 153 °C"
  },
  {
    "Compound": "COC(=O)c1c([N+](=O)[O-])cc(OC)c(OC)c1OC",
    "melting point": "74 to 76 °C"
  },
  {
    "Compound": "CC(C)c1nc(O)c([N+](=O)[O-])c(O)n1",
    "melting point": "300 °C"
  },
  {
    "Compound": "Cc1ccc2cccc(OCc3c(Cl)ccc(S(N)(=O)=O)c3Cl)c2n1",
    "melting point": "206 to 208 °C"
  },
  {
    "Compound": "Cc1cnc(NC(=O)C2c3ccccc3Oc3ccccc32)o1",
    "melting point": "217 to 220 °C"
  }
]

Please examine the following record next.
Query: For Cc1ccccc1-c1cc2ncccc2c(=O)n1C , what is its reported melting point?
Reply: 104 to 106 °C

====

melting point overview

[
  {
    "Molecule": "C=CC12CCc3cc(O)ccc3C1CCC1(C)C(=O)CCC12 (stereo unspecified)",
    "melting point": "239 to 242 °C"
  },
  {
    "Molecule": "NC(=O)[C@@H]1CCCN1C(=O)/C=C/S(=O)(=O)c1ccccc1",
    "melting point": "157 to 158 °C"
  },
  {
    "Molecule": "CC(=O)NNc1ccc(NC(=S)N(C)C)cc1",
    "melting point": "187 to 189 °C"
  },
  {
    "Molecule": "CCCc1nn(-c2ccc(C(F)(F)F)cn2)cc1CCCOc1cc(CCC(=O)O)ccc1OC",
    "melting point": "147 to 148 °C"
  },
  {
    "Molecule": "CCC(=S)c1ccc(C)cc1",
    "melting point": "55 to 56 °C"
  }
]

Query: For COc1ccc2c(c1)c(CC(=O)OCC(=O)N(C)CCO[N+](=O)[O-])c(C)n2C(=O)c1ccc(Cl)cc1 , what is its reported melting point?
Reply: 118 to 122 °C

Query: Further, for O=c1c2ccc(Cl)cc2[nH]c2c(O)nn(Cc3cc4ccccc4s3)c(=O)c12 ?
Reply: > 300 °C

Query: Further, for COc1ccc(/C=C/c2ccccn2)cc1OC1CCCC1 ?
Reply: 76 to 77.5 °C

Query: Further, for CC(C)(C(=O)O)c1ccc(-c2ccc(Cl)cc2)s1 ?
Reply: 146 to 148 °C

Query: Further, for CC(C)(C)c1cc(Cn2cncn2)cc(C(C)(C)C)c1O ?
Reply: < 30 °C

Query: Further, for COC=C(C(=O)OC)c1ccc(OC(C)=O)cc1 ?
Reply: 69 to 70 °C

Query: Further, for Cc1ccc(-c2c(NS(=O)(=O)c3cccc4ccccc34)ncnc2OCCOc2ncc(Br)cn2)cc1 ?
Reply: 204 °C

Query: Further, for CC(=O)N(O)C(C)c1ccc(-c2ccc(OCc3nc4ccccc4s3)cc2)cc1 (stereo unspecified) ?
Reply: 197 to 199 °C

Query: Further, for O=C(O)COc1cc(Br)c2oc3ccccc3c(=O)c2c1 ?
Reply: 219 to 221 °C

Query: Further, for O=Cc1cc(OCc2ccccc2)ccc1O ?
Reply: 94 to 96 °C

Query: Further, for O=C(CC(O)C(F)(F)F)c1cc(Cl)cc(Cl)c1 (stereo unspecified) ?
Reply: 165 to 166 °C

Query: Further, for Cc1oc(-c2ccccc2)nc1CCOc1ccc(C=CC=C2OC(=O)NC2=O)cn1 ?
Reply: 204 to 205 °C

Query: Further, for O=C(c1ccc2[nH]cnc2c1)N1CCC[C@H](c2nc(-c3ccc(F)cc3)no2)C1 ?
Reply: 110 to 115 °C

Query: Further, for Nc1nc2c([nH]c(=S)n2Cc2cccs2)c(=O)[nH]1 ?
Reply: > 280 °C

Query: Further, for CC(=O)NCc1nc(NCCCOc2cccc(CN3CCCCC3)c2)n(C)n1 ?
Reply: 123 °C

Query: Further, for O=C1Cc2c(Cl)cccc2Sc2ccc(F)cc21 ?
Reply: 135 to 137 °C

Query: Further, for CCOC(=O)C(C)(C)c1nc2ccc(Cl)nn2c1Cl ?
Reply: 66 to 67 °C

Query: Further, for Cc1nnc(C(C)NC(=O)CC(C)C)c(=O)[nH]1 (stereo unspecified) ?
Reply: 224 to 226 °C

Query: Further, for COc1cccc(-c2ccc3cc(OC)ccc3c2Oc2ccc(C=O)cc2)c1 ?
Reply: 145 to 146 °C

Query: Further, for N#Cc1cc(-c2ccnc(Nc3cccc(Cl)c3)n2)ccn1 ?
Reply: 221 to 222 °C

Query: Further, for COc1c(Cl)cc(N2C(=O)N3CCCC3(Cc3ccc(C#N)cc3)C2=O)cc1Cl (stereo unspecified) ?
Reply: 95.1 °C

Query: Further, for N#Cc1c(N2CC[C@@H](C3(N)CC3)C2)ccc2c(=O)c(C(=O)O)cn([C@@H]3C[C@@H]3F)c12 ?
Reply: 138 to 140 °C

Query: Further, for N#CC=C1c2ccccc2C=Cc2ccccc21 ?
Reply: 137 to 138 °C

Query: Further, for COCCOc1ccc(N=Nc2cc(S(=O)(=O)N3CCCC3)c(O)c3cccc(NS(C)(=O)=O)c23)cc1S(=O)(=O)Cl ?
Reply: 184 to 187 °C

====

melting point overview

[
  {
    "Compound": "CCOC(=O)c1cccc(N(CC(=O)OC(C)(C)C)C(=O)CNC(=O)Nc2cccc(C)c2)c1",
    "melting point": "71 °C"
  },
  {
    "Compound": "CC[C@H](C)[C@H](NC(=O)/C=C1/c2ccccc2C(=S)N[C@H]1[C@@H](C)CC)C(=O)N[C@H](C(=O)OC)[C@@H](C)CC",
    "melting point": "178 to 181 °C"
  },
  {
    "Compound": "Oc1ccc(-c2nnc(CCCCCCCc3ccccc3)o2)cc1",
    "melting point": "138 to 140 °C"
  }
]

Query: For O=C(O)C1C(C=C(Cl)Cl)C12CCC2 (stereo not given) , what is its reported melting point?
Reply: 122 to 128 °C

Query: Further, for O=Cc1cc2cc(Cl)c(Cl)cc2[nH]1 ?
Reply: 188 to 190 °C

Query: Further, for Cn1c(-c2ccc(OC3CCN(C4CCC4)CC3)cc2)nc2cccnc2c1=O ?
Reply: 182 to 183 °C

====

melting point overview

Please review the following examples before continuing.
[
  {
    "Compound": "CNC(=O)c1cccc(Nc2nc(Nc3ccc4c(c3)CCCC(=O)N4C)ncc2Cl)c1",
    "melting point": "215 to 217 °C"
  },
  {
    "Compound": "CN1CCN(c2cccc3c2C[C@H](NC(=O)c2ccc(C#N)cc2)CC3)CC1",
    "melting point": "184 to 186 °C"
  },
  {
    "Compound": "C=CC(CC(O)C(CC1CCCCC1)NC(=O)C(Cc1c[nH]cn1)NC(=O)C(Cc1ccccc1)NC(=O)OC(C)(C)C)C(C)C (stereo not given)",
    "melting point": "161 °C"
  }
]

Query: For N#Cc1c(C(N)=O)nn2c(-c3cccc(C(F)(F)F)c3)ccnc12 , what is its reported melting point?
Reply: 236 to 238 °C

Query: Further, for O=[N+]([O-])c1ccc(COP(=O)(COS(=O)(=O)C(F)(F)F)OCc2ccc([N+](=O)[O-])cc2)cc1 ?
Reply: 73 to 75 °C

Query: Further, for CC(c1ccc(-c2ccccc2)s1)N(O)C(N)=O (stereo not given) ?
Reply: 150 to 152 °C

Query: Further, for O=C1Nc2ccccc2SC1CCCl (stereo not given) ?
Reply: 133 to 134 °C

Query: Further, for COc1cc(Nc2nccc(N3CCC(O)CC3)n2)ccc1-n1cnc(C)c1 ?
Reply: 197 to 200 °C

Query: Further, for O=C(O)C1=Cc2cc(Cl)c(Oc3ccc(F)c(F)c3)cc2OC1C(F)(F)F (stereo not given) ?
Reply: 192 to 193 °C

Query: Further, for NNC1=Nc2ccc(Cl)cc2C(c2ccccc2F)S(=O)(=O)CC1 (stereo not given) ?
Reply: 159 °C

====

melting point overview
State just the number; it will be interpreted in °C.

[
  {
    "Structure smiles string": "CC(=O)Nc1cccc(-n2nc(C(C)C)c(=O)n(Cc3ccc(Cl)cc3)c2=O)c1",
    "melting point (°C)": 178
  }
]

Please examine the following record next.
Query: For CCc1c(-c2ccc(N(C)C)nn2)ssc1=S , what is its reported melting point?
Reply: 160

====

melting point overview

Please review the following examples before continuing.
[
  {
    "Compound": "COc1ccc(C(=O)Nc2ccc3cccnc3n2)cc1",
    "melting point": "150 °C"
  },
  {
    "Compound": "COc1ccc(Nc2ccccc2C(=O)N2CCCCC2)cc1",
    "melting point": "106 to 108 °C"
  },
  {
    "Compound": "CC(C)(O)C1CC(c2ccc(-c3ccc(N4C[C@H](Cn5ccnn5)OC4=O)cc3F)cn2)=NO1 (stereo partly specified)",
    "melting point": "197 °C"
  },
  {
    "Compound": "Fc1ccc(C2(Cl)CN(C(c3ccccc3)c3ccccc3)C2)cc1",
    "melting point": "108 to 109 °C"
  },
  {
    "Compound": "COc1cccc(-c2cc(-c3ccoc3)on2)c1",
    "melting point": "36 to 37 °C"
  }
]

Query: For N#Cc1ccc2c(c1)Sc1ccccc1C=C2 , what is its reported melting point?
Reply: 108 to 110 °C

Query: Further, for Oc1cccc(C2CNC3(CCCCC3)O2)c1 (stereo unspecified) ?
Reply: 138 to 139 °C

Query: Further, for CCOC(=O)c1cnn(-c2ccccc2Oc2ccc(C)cc2O)c1 ?
Reply: 118 to 119 °C

Query: Further, for N#Cc1cnn2cccc2c1Nc1ccccc1 ?
Reply: 164 °C

Query: Further, for COc1ccc(C2CNC(=O)C2)cc1OCCN1CCN(c2ccccc2)CC1 (stereo unspecified) ?
Reply: 140 to 141 °C

Query: Further, for Cc1ccc(C(=O)COc2ccc(F)cc2)cc1 ?
Reply: 95 to 96 °C
